Tested on: PfHDP1 homeodomain (GST-tagged)
EXPERIMENT_NOTES: gcPBM binding intensity (ln(normalized median fluorescence intensity)); higher = stronger DNA binding
The full ranking holds about 25,000 sequences; the median of “ln(normalized median fluorescence intensity)” is about 6.7, and the highest 2% start at about 10. The full list was thinned out, with the highest values kept by preference.
Overview of reported gcPBM binding intensity (ln) across a group of sequences:

Below, each entry is followed by its recorded gcPBM binding intensity (ln) result.
AAATAATTAGCTATTTGTACATATATACATATTTAT [XGTACX_site4652] : 6.37
TTTATTAATAGACACACACACACACGCAAAATAAAA [CACACA_site6255] : 7.16

Briefly, gcPBM binding intensity (ln) measured for AAAGAAATGAAATATACACACATACATAAATACATA [CACACA_site6081] : 6.68

Briefly, gcPBM binding intensity (ln) measured for AAATTCATAAAAATATTTTATAATTATATATAGAAT [TGCATGCA_negctrl_site343] : 6.34
